assay: Drug concentration in DIO mouse brain at 10 mg/kg, po measured for 6 hrs; assay type: ADME, organism-based; settings: read-out: Drug uptake
Can you tell me concentration at 6 h for the items I'm about to list?

Worked set:
samplesmiles=O=C(O)Cc1c(C(=O)N2CCC(c3ccccc3F)CC2)nn(-c2ccccc2Cl)c1-c1ccc(Cl)cc1 propertylabel="concentration at 6 h" val="220 nM"
samplesmiles=O=C(O)Cc1c(C(=O)N2CCC(c3ccc(F)cc3)CC2)nn(-c2ccccc2Cl)c1-c1ccc(Cl)cc1 propertylabel="concentration at 6 h" val="70 nM"
samplesmiles=C[C@@H](NC(=O)c1nn(-c2ccccc2Cl)c(-c2ccc(Cl)cc2)c1Cc1nn[nH]n1)c1ccc(C(F)(F)F)cc1 propertylabel="concentration at 6 h" val="80 nM"

Note: attention shifts to another entry.
Lookup: Please look at this compound and report its concentration at 6 h: C[C@@H](NC(=O)c1nn(-c2ccccc2Cl)c(-c2ccc(Cl)cc2)c1Cc1nn[nH]n1)c1ccc(OC(F)(F)F)cc1
Found: 160 nM

###

experiment: Drug concentration in DIO mouse plasma at 10 mg/kg, po measured for 6 hrs; assay type: ADME, organism-based
propertyLabel: concentration at 6 h (µM)
Numbers only, in µM.

Worked set:
samplesmiles=O=C(O)Cc1c(C(=O)N2CCC(c3ccccc3F)CC2)nn(-c2ccccc2Cl)c1-c1ccc(Cl)cc1 val=38
samplesmiles=C[C@@H](NC(=O)c1nn(-c2ccccc2Cl)c(-c2ccc(Cl)cc2)c1Cc1nn[nH]n1)c1ccc(OC(F)(F)F)cc1 val=12
samplesmiles=O=C(O)Cc1c(C(=O)N2CCC(c3ccc(F)cc3)CC2)nn(-c2ccccc2Cl)c1-c1ccc(Cl)cc1 val=9

Note: attention shifts to another entry.
Lookup: Please look at this compound and report its concentration at 6 h: C[C@@H](NC(=O)c1nn(-c2ccccc2Cl)c(-c2ccc(Cl)cc2)c1Cc1nn[nH]n1)c1ccc(C(F)(F)F)cc1
Found: 6.5

###

Can you tell me IC50 for the items I'm about to list?
target: Cannabinoid receptor 2 (Homo sapiens, UniProt P34972); experiment: Inverse agonist activity at human CB2 receptor expressed in CHO-K1 cell membrane in presence of CP55940 by GTP-gamma-S assay
Sequence (P34972 whole entry): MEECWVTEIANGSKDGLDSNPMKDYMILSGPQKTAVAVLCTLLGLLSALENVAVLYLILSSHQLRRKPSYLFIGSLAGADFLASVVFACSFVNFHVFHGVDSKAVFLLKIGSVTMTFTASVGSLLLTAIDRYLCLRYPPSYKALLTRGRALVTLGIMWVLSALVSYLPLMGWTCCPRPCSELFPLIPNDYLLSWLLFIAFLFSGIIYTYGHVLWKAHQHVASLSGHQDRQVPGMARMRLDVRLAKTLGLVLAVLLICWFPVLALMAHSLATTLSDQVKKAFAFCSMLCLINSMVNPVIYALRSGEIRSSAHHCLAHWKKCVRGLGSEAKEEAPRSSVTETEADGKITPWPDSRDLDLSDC

samplesmiles=O=C(O)Cc1c(C(=O)N2CCC(c3ccccc3F)CC2)nn(-c2ccccc2Cl)c1-c1ccc(Cl)cc1 propertylabel=IC50 val="> 10 µM"
samplesmiles=O=C(O)Cc1c(C(=O)N2CCC(c3ccc(F)cc3)CC2)nn(-c2ccccc2Cl)c1-c1ccc(Cl)cc1 propertylabel=IC50 val="> 10 µM"
samplesmiles=NC(=O)Cc1c(C(=O)N2CCC(O)(c3ccc(F)cc3)CC2)nn(-c2ccccc2Cl)c1-c1ccc(Cl)cc1 propertylabel=IC50 val="7.9 µM"
samplesmiles=N=C(N)Cc1c(C(=O)Nc2ccc(F)cc2)nn(-c2ccccc2Cl)c1-c1ccc(Cl)cc1 propertylabel=IC50 val="> 10 µM"
samplesmiles=C[C@@H](NC(=O)c1nn(-c2ccccc2Cl)c(-c2ccc(Cl)cc2)c1Cc1nn[nH]n1)c1ccc(OC(F)(F)F)cc1 propertylabel=IC50 val="> 10 µM"

Return reported IC50 values for all items listed beneath this line.
1. O=C(O)Cc1c(C(=O)N2CCC(c3cccc(F)c3)CC2)nn(-c2ccccc2Cl)c1-c1ccc(Cl)cc1
2. C[C@@H](NC(=O)c1nn(-c2ccccc2Cl)c(-c2ccc(Cl)cc2)c1Cc1nn[nH]n1)c1ccc(C(F)(F)F)cc1

Found:
["> 10 µM", "4.5 µM"]
